These data points were gathered from PubChem BioAssay (NCI).

# System: OVCAR-4 ovarian
# protocol_details: NCI-60 one-dose screen, 48 h (100 = growth as untreated, 0 = no growth, -100 = all killed)
# experimental_context: 10 µM unless noted
This is part of a sample that, as a whole, favours compounds with a hit. Of some 83,000 tested, about 20% had one in any assay.
Consider the following compounds and their measured growth readings.
Use % as the unit, but write only the number.

Cc1ccc(S(=O)(=O)n2cc(C(=O)C(=O)N3CCOCC3)c3ccccc32)cc1: 89.1
O=S(=O)(NCCNc1nccc(-c2c(-c3cccc(O)c3)nc3sccn23)n1)c1ccc(F)cc1: 103
CCNc1nc(S(=O)(=O)CC)nc2ccccc12: 99.7
COc1ccc2c(c1)[nH]c(=O)c1c3cc(OC)ccc3cn21: 46.1
COc1ccc(/C=C2\CN(Cc3cn(CCNc4ccnc5cc(Cl)ccc45)nn3)C/C(=C\c3ccc(OC)c(OC)c3)C2=O)cc1OC: 29.8
Cc1nn(-c2ccc([N+](=O)[O-])cc2)c2ncnc(NCCc3ccccc3)c12: 109

## Input State its growth on OVCAR-4 ovarian: O=C(NNC(=S)Nc1ccccc1)c1cc2ccc1CCc1ccc(cc1)CC2
## Output 47.8

## Input State its growth on OVCAR-4 ovarian: COc1ccc(/C=C\c2cc(OC)c(OC)c(OC)c2)cc1OC(=O)c1cccc(Cn2cc(CCOC(=O)c3cccc(Cn4nnc5c4C(=O)c4ccccc4C5=O)c3)nn2)c1
## Output 31.6

## Input State its growth on OVCAR-4 ovarian: Cc1ccc2ccccc2c1C[n+]1ccccc1
## Output 91.5

---

# System: M14 melanoma
# protocol_details: NCI-60 one-dose screen, 48 h
# experimental_context: 10 µM unless noted
Compounds without any hit were thinned out: in the full panel of roughly 83,000, 20% have a hit. Active and inactive are the calls of the source. How the source made its calls: active means growth percent below 10; inactive means the rest.
One label from this list, please: True for active, False for inactive

CCCCN(CCCC)c1ccc(C(=N)c2ccc(N(CCCC)CCCC)cc2)cc1: True
COc1cc(Nc2ncccc2C(=O)NCc2cn(Cc3cccc(Oc4ccccc4)c3)nn2)cc(OC)c1: False
Cn1c(=O)cc(NC(=O)CN2CCN(c3cc4c(cc3F)c(=O)c(C(=O)O)cn4C3CC3)CC2)[nH]c1=O: False
COc1cc(NC(N)=NCCC(C)(C)Oc2ccc(C(F)(F)F)cc2)ncc1C#N: True
COc1ccc(C(=O)N2NC(=O)/C(=C/c3ccc(F)cc3)N=C2c2ccccc2)cc1: False
O=C1C2(c3ccccc3)C(c3ccccc3)=C(c3ccccc3)C1(c1ccccc1)C1CC=CC12 (stereo not drawn): False
COc1ccc(CCNC2=CC(=O)CCC2)cc1OC: False
COc1ccc(-c2cc(-c3ccccc3)nc(SCCCC(=O)NO)n2)cc1OC: True

## Input Test call, this compound: Nc1nnc(-c2ccc3ccccc3c2O)o1
## Output False

## Input Test call, this compound: COc1cc(C(=O)/C=C/c2c(C)n([O-])c3ccc(C(F)(F)F)cc3[n+]2=O)cc(OC)c1OC
## Output False

## Input Test call, this compound: Oc1ccc2cc(Br)ccc2c1-c1c(O)ccc2cc(Br)ccc12
## Output False

## Input Test call, this compound: O=C(CSc1nc2ccccc2[nH]1)c1ccc(N2CCOCC2)cc1
## Output False

## Input Test call, this compound: O=C(O)C1CCCCN1c1nc(Cl)nc(Cl)n1 (stereo not drawn)
## Output False

## Input Test call, this compound: CCCCCCCCCCCCCCCCCCNC(=O)[C@H]1CSC(c2ccc(OC)cc2O)N1 (stereo partly drawn)
## Output False

## Input Test call, this compound: CCOc1cc2c(Cl)ncnc2c(OCC)c1OCC
## Output False

## Input Test call, this compound: CN1CCN(Cc2ccc(NC(=O)c3cncc(C#Cc4cnc(N)c5cnccc45)c3)cc2C(F)(F)F)CC1
## Output True

## Input Test call, this compound: CC12CCCC(CC(=O)c3[nH]c4ccccc4c31)C2 (stereo not drawn)
## Output True

## Input Test call, this compound: CN(C[C@H]1Cc2c(cccc2N2CCN(Cc3ccccn3)CC2)CN1)[C@H]1CCCc2cccnc21
## Output False

## Input Test call, this compound: O=Nc1c(-c2cccc([N+](=O)[O-])c2)nc2ncccn12
## Output False

## Input Test call, this compound: COc1c2occc2c(OC)c2c(=O)c(-c3cc(-c4ccc(F)cc4)c(C#N)c(N)n3)c(C)oc12
## Output False

## Input Test call, this compound: CC(C)(C)n1cc(-c2ccnc(NCCCNS(=O)(=O)c3cccc(F)c3)c2)c(-c2cccc(O)c2)n1
## Output False

## Input Test call, this compound: Cc1[nH]c2ccc(F)cc2c1CCNC(=O)C1CCN(C(=O)c2ccccc2)CC1
## Output False

## Input Test call, this compound: CCCCCCCCCCCCCCCCCCNC(=O)[C@H]1CSC(c2cccs2)N1 (stereo partly drawn)
## Output True

## Input Test call, this compound: COc1ccc(/C=N\NC(=O)CN2CCN(c3cc4c(cc3F)c(=O)c(C(=O)N/N=C/c3ccc(OC)c(OC)c3)cn4C3CC3)CC2)cc1OC
## Output False

## Input Test call, this compound: COc1ccc(-c2c(-c3cc(OC)c4c(c3)OCO4)noc2N)cc1
## Output False

## Input Test call, this compound: CC(O)CN1CCCCC1 (stereo not drawn)
## Output False

## Input Test call, this compound: CCCCCCCCCCCCNC(=O)[C@H]1CSC(c2cc(Br)cs2)N1 (stereo partly drawn)
## Output True

## Input Test call, this compound: CCO/C=N/C1=C(C#N)C(c2ccc(Cl)cc2)c2c(c3ccc(C)cc3[nH]c2=O)O1 (stereo not drawn)
## Output False

## Input Test call, this compound: CN(C)c1ncnc2c1ccn2C1OC(CO)C(O)C1O (stereo not drawn)
## Output False

## Input Test call, this compound: O=c1[nH]c(-c2ccccc2)nc(CN2CCCCC2)c1O
## Output False

## Input Test call, this compound: COc1ccc2c(c1)cn1c3ccc(OC)cc3[nH]c(=O)c21
## Output True

## Input Test call, this compound: COc1ccc(-n2c(-c3ccccc3)c(-c3ccccc3)c3c(SCC(=O)N/N=C/c4ccc(Cl)cc4)ncnc32)cc1
## Output False
